Each entry below carries its recorded ΔF (%).
target: Human IgG (Calbiochem; San Diego Calif.) (human); assay: IgG displaced from peptide pin; competitor MSP1-19
Write the answer as a number in %, unit excluded.

As a guide, the following entries are already answered.
TKPDS [Peptide# 79]: 11
KPDSY [Peptide# 80]: 11
DSYPL [Peptide# 82]: 9

With those in mind, consider the next binder.
*Q* What value of measured ΔF (%) is listed for SYPLF [Peptide# 83] ?
*A* 13

Reference source for all entries: patent US20060099648A1
